Target: T1, G3BP2 NTF2 domain (human, UniProt Q9UN86 11-133)
T1 sequence (looked up): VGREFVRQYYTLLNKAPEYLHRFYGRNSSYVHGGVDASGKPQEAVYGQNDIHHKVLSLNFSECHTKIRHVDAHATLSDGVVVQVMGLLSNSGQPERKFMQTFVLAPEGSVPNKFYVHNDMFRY
Conditions: both partners purified
property_measured: Ki (µM)
State the answer as a number, implicitly in µM.

IN: Would you kindly share the measured Ki for QGKPLEFGATSAALQY [NSP3 peptide 956-971 (Sars-CoV2)] ?
OUT: 35
